Test: PK protocol, intravenous administration
Format: in vivo, male Sprague Dawley rats
Settings: male, Sprague Dawley, plasma, dose 1.7 mg/kg, rat, read-out: Vdss

Compound structure	Unit abbreviation	Vd
CCn1nc(S(=O)(=O)NC(=O)Nc2c(-c3ccnc(OC)c3)ccc3c2CCC3)cc1CN(C)C	L/kg	1.23

---

Experiment: PK protocol, intravenous administration
Type: in vivo, male Sprague Dawley rats
Settings: male, Sprague Dawley, plasma, dose 1 mg/kg, rat
Counter-ions that a name gives are not always drawn.

Compound	AUC, ng·h/mL
COc1cc(-c2cc(F)cc(C(C)C)c2NC(=O)NS(=O)(=O)c2cncc(N(C)C)n2)ccn1	346
CC(C)c1cc(F)cc(-c2cccnc2)c1NC(=O)NS(=O)(=O)c1ccn(C(C)C)n1	341
COc1cc(-c2ccc3c(c2NC(=O)NS(=O)(=O)c2ccn(C(C)C)n2)CCO3)ccn1 [Example 224, sodium salt]	6480
COc1cc(-c2cc(F)c3c(c2NC(=O)NS(=O)(=O)c2ccn(C(C)C)n2)CCC3)ccn1	1860
COc1cc(-c2ccc3c(c2NC(=O)NS(=O)(=O)c2ccn(C(C)(C)CN(C)C)n2)CCC3)ccn1	896
CC(C)c1cc(F)cc(C2CCOCC2)c1NC(=O)NS(=O)(=O)c1cc(C(=O)N(C)C)n(C)n1 [Example 30, sodium salt]	182
CC(C)n1ccc(S(=O)(=O)NC(=O)Nc2c(-c3ccnnc3)ccc3c2CCC3)n1 [Example 223, sodium salt]	1740

---

Biological target: NLRP3 (Homo sapiens, UniProt Q96P20)
Sequence (Q96P20 whole entry): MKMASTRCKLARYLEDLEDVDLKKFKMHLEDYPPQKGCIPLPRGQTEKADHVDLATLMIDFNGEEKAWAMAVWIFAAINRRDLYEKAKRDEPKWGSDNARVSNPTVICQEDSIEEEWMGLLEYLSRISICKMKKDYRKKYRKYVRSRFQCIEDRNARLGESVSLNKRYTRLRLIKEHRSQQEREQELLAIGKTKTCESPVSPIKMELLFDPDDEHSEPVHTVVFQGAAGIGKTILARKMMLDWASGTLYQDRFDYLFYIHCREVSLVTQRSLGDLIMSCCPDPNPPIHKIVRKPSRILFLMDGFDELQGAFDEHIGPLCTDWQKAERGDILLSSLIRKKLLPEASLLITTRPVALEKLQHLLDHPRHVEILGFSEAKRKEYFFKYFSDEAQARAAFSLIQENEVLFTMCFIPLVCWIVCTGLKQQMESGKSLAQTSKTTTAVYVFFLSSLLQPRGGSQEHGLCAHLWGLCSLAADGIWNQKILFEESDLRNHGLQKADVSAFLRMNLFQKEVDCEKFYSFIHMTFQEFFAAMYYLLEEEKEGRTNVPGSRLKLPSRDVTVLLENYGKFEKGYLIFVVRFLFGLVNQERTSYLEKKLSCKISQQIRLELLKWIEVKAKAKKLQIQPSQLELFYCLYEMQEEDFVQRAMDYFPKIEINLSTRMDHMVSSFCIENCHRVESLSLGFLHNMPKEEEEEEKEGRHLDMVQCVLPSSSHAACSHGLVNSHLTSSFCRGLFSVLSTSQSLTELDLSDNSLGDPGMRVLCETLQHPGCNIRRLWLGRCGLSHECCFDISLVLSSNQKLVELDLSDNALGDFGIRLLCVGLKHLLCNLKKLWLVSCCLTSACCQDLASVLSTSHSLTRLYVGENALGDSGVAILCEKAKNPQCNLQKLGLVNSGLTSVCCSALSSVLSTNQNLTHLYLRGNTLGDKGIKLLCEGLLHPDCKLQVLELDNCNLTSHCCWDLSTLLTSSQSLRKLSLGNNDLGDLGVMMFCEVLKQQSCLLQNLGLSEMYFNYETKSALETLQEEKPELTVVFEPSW
Assay: THP-1 cells pyroptosis assay (LPS + nigericin, resazurin readout; THP IC50)
Type: cell-based
Set-up: Seed THP-1 cells (25,000 cells/well) containing 1.0 μg/ml LPS in 40 μl of RPMI medium; host or cells: THP-1 cells
pIC50: −log10 of the molar value. Structures can show the parent of a compound that is named as a salt.
Outcome measure: pIC50

Compound	Result
COc1cc(-c2ccc3c(c2NC(=O)NS(=O)(=O)c2ccn(C4CC4)n2)CCO3)ccn1 [Example 248, sodium salt]	≥ 6.30
COc1cc(-c2ccc3c(c2NC(=O)NS(=O)(=O)c2nn(C(C)C)cc2F)CCC3)ccn1 [Example 239]	≥ 6.30
CCN(CCCS(=O)(=O)NC(=O)Nc1c(-c2ccnc(OC)c2)cc(F)cc1C(C)C)Cc1ccccc1 [Example 150]	≥ 6.30
COc1cc(-c2ccc3c(c2NC(=O)NS(=O)(=O)c2cnc(N(C)C)cn2)CCC3)ccn1 [Example 108]	≥ 6.30
CC(C)n1ccc(S(=O)(=O)NC(=O)Nc2c(-c3cccnc3)ccc3c2CCCC3)n1 [Example 179]	≥ 5.30
COc1cc(-c2cc(F)cc(C(C)C)c2NC(=O)NS(=O)(=O)c2ccn(C(C)C)n2)cc(C)n1 [Example 26]	≥ 5.30
COc1cc(-c2ccc3c(c2NC(=O)NS(=O)(=O)c2ccn(CC4CC4)n2)CCC3)ccn1 [Example 263, sodium salt]	≥ 6.30

---

Entries and their measured pIC50 follow.
Biological target: NLRP3 (Homo sapiens, UniProt Q96P20)
Assay: THP-1 cells pyroptosis assay (LPS + nigericin, resazurin readout; THP IC50)
Type: cell-based
Set-up: Seed THP-1 cells (25,000 cells/well) containing 1.0 μg/ml LPS in 40 μl of RPMI medium; host or cells: THP-1 cells
pIC50: −log10 of the molar value. Counter-ions that a name gives are not always drawn.

Molecule	Tested target	pIC50
[2H]C([2H])([2H])Oc1cc(-c2ccc3c(c2NC(=O)NS(=O)(=O)c2ccn(C4CCC4)n2)CCC3)ccn1 [Example 290, sodium salt]	NLRP3 (Homo sapiens, UniProt Q96P20)	≥ 6.30
COc1cc(-c2ccc3c(c2NC(=O)NS(=O)(=O)c2ccc(CN(C)C)c(C4CC4)c2)CCC3)ccn1	NLRP3 (Homo sapiens, UniProt Q96P20)	≥ 6.30
COc1cc(-c2ccc3c(c2NC(=O)NS(=O)(=O)N(C)C2CCN(C)C2)CCC3)ccn1 (stereo not shown)	NLRP3 (Homo sapiens, UniProt Q96P20)	≥ 6.30
CC(C)(O)Cn1ccc(S(=O)(=O)NC(=O)Nc2c(-c3ccnc(C#N)c3)ccc3c2CCC3)n1 [Example 183, sodium salt]	NLRP3 (Homo sapiens, UniProt Q96P20)	≥ 6.30
COCCCS(=O)(=O)NC(=O)Nc1c(-c2ccnc(C#N)c2)cc(F)cc1C(C)C	NLRP3 (Homo sapiens, UniProt Q96P20)	≥ 5.30
CC(C)CS(=O)(=O)NC(=O)Nc1c(-c2ccnc(C#N)c2)cc(F)cc1C(C)C	NLRP3 (Homo sapiens, UniProt Q96P20)	≥ 5.00
CC(C)n1ccc(S(=O)(=O)NC(=O)Nc2c(-c3ccnc(C#N)c3)cc(Cl)c3c2CCC3)n1 [Example 225, sodium salt]	NLRP3 (Homo sapiens, UniProt Q96P20)	≥ 6.30

---

The entries below are paired with their reported IC50.
Molecular target: UniProt Q96P20
Experiment: THP-1 cells pyroptosis assay (LPS + nigericin, resazurin readout; THP IC50)
Format: cell-based
Design: Seed THP-1 cells (25,000 cells/well) containing 1.0 μg/ml LPS in 40 μl of RPMI medium; host or cells: THP-1 cells
Where a name gives a salt, the structure may show the parent alone.

Compound	IC50
O=C(Nc1c(-c2ccnc(OC(F)F)c2)ccc2c1CCO2)NS(=O)(=O)c1ccn(C2CCC2)n1 [Example 275, sodium salt]	≤ 0.5 µM
CN(C)c1cncc(S(=O)(=O)NC(=O)Nc2c(-c3ccncc3)cc(F)c3c2CCC3)n1	≤ 0.5 µM
COc1cc(-c2ccc3c(c2NC(=O)NS(=O)(=O)c2cc(CN(C)C)n(C(C)C)n2)CCC3)ccn1	≤ 0.5 µM
COCCCS(=O)(=O)NC(=O)Nc1c(-c2ccncc2)cc(F)c2c1CCC2	≤ 5 µM
CCN1CCC(S(=O)(=O)NC(=O)Nc2c(-c3ccnc(OC)c3)cc(F)c3c2CCC3)CC1 [Example 97, potassium salt]	≤ 5 µM
COC1(c2cc(S(=O)(=O)NC(=O)Nc3c(-c4cccnc4)cc(F)c4c3CCC4)nn2C)COC1	≤ 0.5 µM
CCOc1cc(-c2ccc3c(c2NC(=O)NS(=O)(=O)c2ccn(C(C)C)n2)CCC3)ccn1	≤ 0.5 µM
CC(C)n1cnc(S(=O)(=O)NC(=O)Nc2c(-c3ccnc(C#N)c3)ccc3c2CCC3)c1	≤ 0.5 µM
CC(C)(O)c1coc(S(=O)(=O)NC(=O)Nc2c3c(nn2-c2ccncc2)CCC3)c1	≤ 5 µM
COc1cc(-c2cc(F)cc(C(C)C)c2NC(=O)NS(=O)(=O)C2CN(C3CCC3)C2)ccn1	≤ 0.5 µM
COc1cc(-c2cc(F)cc(C(C)C)c2NC(=O)NS(=O)(=O)c2cc(N(C)C)cnn2)ccn1	≤ 0.5 µM
CN(C)CC(C)(C)n1ccc(S(=O)(=O)NC(=O)Nc2c(-c3ccnc(OC4CC4)c3)ccc3c2CCO3)n1 [Example 198, sodium salt]	≤ 0.5 µM
COc1cc(-c2cc(F)cc(C(C)C)c2NC(=O)NS(=O)(=O)c2cc(C3(OC)COC3)n(C)n2)ccn1	≤ 0.5 µM
COC(C)(C)c1cc(S(=O)(=O)NC(=O)Nc2c(-c3cccnc3)cc(F)cc2C(C)C)nn1C	≤ 0.5 µM
COc1cc(-c2cc(F)cc(C(C)C)c2NC(=O)NS(=O)(=O)c2cc(CN(C)C)n(C)n2)ccn1	≤ 0.5 µM
C[C@@H](O)Cn1ccc(S(=O)(=O)NC(=O)Nc2c(-c3ccnc(C#N)c3)ccc3c2CCC3)n1 [Example 182, sodium salt]	≤ 0.5 µM
CNCc1cc(S(=O)(=O)NC(=O)Nc2c(-c3ccnc(OC)c3)ccc3c2CCC3)nn1C1CC1 [Example 190, sodium salt]	≤ 0.5 µM
CN(C)CC(C)(C)n1ccc(S(=O)(=O)NC(=O)Nc2c(-c3cccnc3)ccc3c2CCC3)n1	≤ 0.5 µM
CC(C)c1cc(F)cc(-c2cncc(Cl)c2)c1NC(=O)NS(=O)(=O)c1ccn(C(C)C)n1 [Example 16, ammonium salt]	≤ 5 µM
CC(C)c1cc(F)cc(-c2ccnc(C(F)(F)F)c2)c1NC(=O)NS(=O)(=O)c1ccn(C(C)C)n1	≤ 1 µM
CC(C)n1ccc(S(=O)(=O)NC(=O)Nc2c(-c3ccnc(OC4CCOCC4)c3)ccc3c2CCC3)n1 [Example 292, sodium salt]	≤ 0.5 µM
CC(C)c1cc(F)cc(-c2cccc(C#N)c2)c1NC(=O)NS(=O)(=O)c1cc(CN(C)C)n(C)n1	≤ 0.5 µM
COc1cc(-c2ccc3c(c2NC(=O)NS(=O)(=O)c2cnn(C(C)C)n2)CCC3)ccn1 [Example 246, sodium salt]	≤ 0.5 µM
COc1cc(-c2ccc3c(c2NC(=O)NS(=O)(=O)C2CN(C4CCC4)C2)CCC3)ccn1	≤ 0.5 µM
COCCN(CCOC)C(=O)c1cc(S(=O)(=O)NC(=O)Nc2c(-c3ccnc(OC(C)C)c3)cc(F)cc2C(C)C)nn1C [Example 166, sodium salt]	≤ 5 µM
COc1cc(-c2ccc3c(c2NC(=O)NS(=O)(=O)c2ccn(C4CC4)n2)CCO3)c(F)cn1 [Example 265, sodium salt]	≤ 0.5 µM
CC(C)n1ccc(S(=O)(=O)NC(=O)Nc2c(-c3ccncc3)cc(F)c3c2CCC3)n1	≤ 0.5 µM
CC(C)n1cc(S(=O)(=O)NC(=O)Nc2c(-c3ccnc(C#N)c3)ccc3c2CCC3)ncc1=O [Example 72, sodium salt]	≤ 0.5 µM
CC(C)CS(=O)(=O)NC(=O)Nc1c(-c2ccncc2)cc(F)c2c1CCC2	≤ 1 µM

Sourced from patent US20200361895A1
